Measured values drawn from patent US9932335B2 for this set.

- Target system: M1 receptor (Rattus norvegicus, UniProt P08482)
- Construct: expressed in transfected cells
- Sequence (P08482 1-460): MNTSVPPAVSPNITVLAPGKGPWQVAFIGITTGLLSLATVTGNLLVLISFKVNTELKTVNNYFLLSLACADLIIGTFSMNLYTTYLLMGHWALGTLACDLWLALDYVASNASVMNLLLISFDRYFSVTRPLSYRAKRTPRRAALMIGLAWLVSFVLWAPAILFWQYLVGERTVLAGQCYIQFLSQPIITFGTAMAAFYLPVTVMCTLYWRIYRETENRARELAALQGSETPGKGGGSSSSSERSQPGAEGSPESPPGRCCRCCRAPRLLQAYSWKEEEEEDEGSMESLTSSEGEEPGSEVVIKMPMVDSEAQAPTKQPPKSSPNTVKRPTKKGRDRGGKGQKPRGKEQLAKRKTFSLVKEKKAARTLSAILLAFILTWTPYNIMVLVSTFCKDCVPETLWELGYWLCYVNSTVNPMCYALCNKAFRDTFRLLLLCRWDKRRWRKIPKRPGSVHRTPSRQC
- Measurement protocol: M1 PAM assay (FLIPR intracellular calcium), rat
- Type: cell-based
I'd appreciate it if you could supply pEC50 values for the items below.
Quick note: pEC50 values are minus log10 of concentrations in mol/L.

IN: Specify pEC50 for `C[C@@H](CO)NC(=O)c1cn(Cc2ccc(-c3cnn(C)c3)cc2F)c2cccnc12` and stop.
OUT: 6.16

IN: Please report the measured pEC50 for `O=C(N[C@H]1CCCC[C@@H]1O)c1cn(Cc2ccc(-c3nccs3)cc2)c2cccnc12`
OUT: 6.90

IN: Note down pEC50 recorded for `Cn1cc(-c2ccc(Cn3cc(C(=O)N[C@H](CO)c4ccccc4)c4ncccc43)c(F)c2)cn1`
OUT: 6.56

IN: Please report the measured pEC50 for Cn1cc(-c2ccc(Cn3cc(C(=O)N[C@H]4CCOC[C@@H]4O)c4ncccc43)c(F)c2)cn1 (racemic) [Example 4]
OUT: 7.23

IN: Identify measured pEC50 associated with `Cn1cc(-c2ccc(Cn3cc(C(=O)N[C@H]4CCC[C@H]4O)c4ncccc43)c(F)c2)cn1`
OUT: 6.71

IN: Look up and state reported pEC50 for CC(C)C(CO)NC(=O)c1cn(Cc2ccc(-c3cnn(C)c3)cc2F)c2cccnc12 (stereo not shown)
OUT: 6.42

IN: Item `Cn1cc(-c2ccc(Cn3cc(C(=O)N[C@H]4CCC[C@@H]4O)c4ncccc43)c(F)c2)cn1` : provide pEC50
OUT: 6.57

IN: Read the entry `CC[C@@H](CO)NC(=O)c1cn(Cc2ccc(-c3cnn(C)c3)cc2F)c2cccnc12` and write its reported pEC50.
OUT: 6.61

IN: State, in one line, measured pEC50 of `Cn1cc(-c2ccc(Cn3cc(C(=O)Nc4ncccc4CO)c4ncccc43)c(F)c2)cn1`
OUT: 6.68

IN: Please supply the value of reported pEC50 for the item `Cn1ncc2cc(Cn3cc(C(=O)N[C@H]4CCCC[C@@H]4O)c4ncccc43)ccc21`
OUT: 6.79

IN: Tell me its pEC50 given `COc1ccc(Cn2cc(C(=O)N[C@H]3CCCC[C@@H]3O)c3ncccc32)cc1` as the entry.
OUT: 6.66

IN: Answer with the recorded pEC50 of NC(=O)c1ccc(Cn2cc(C(=O)N[C@@H]3CCOC[C@H]3O)c3ncccc32)cc1 (stereo in doubt) [Example 63a] only.
OUT: 6.18

IN: Answer with the recorded pEC50 for the compound listed here: `Cn1cc(-c2ccc(Cn3cc(C(=O)NC4CCCCC4)c4ncccc43)c(F)c2)cn1`
OUT: 6.28

IN: Fill in reported pEC50 for this entry: `Cc1ccc(Cn2cc(C(=O)N[C@H]3CCCC[C@@H]3O)c3ncccc32)cc1F`
OUT: 6.35

IN: Determine its reported pEC50: `O=C(N[C@H]1CCCC[C@@H]1O)c1cn(Cc2ccc(Cl)nc2)c2cccnc12`
OUT: 5.63

IN: Find the measured pEC50 of `CNC(=O)c1ccc(Cn2cc(C(=O)N[C@H]3CCCC[C@@H]3O)c3ncccc32)cc1` and report it.
OUT: 7.74
